# Method: Solubility in cell culture medium
# Format: physicochemical
# Experimental Context: plasma or biological fluid
# solubility per entry
Parameter Measured: solubility

Cc1cc([N+](=O)[O-])cn(CC(=O)c2c[nH]c3ccc(Cl)cc23)c1=O :: > 10 µM
O=C(Cn1cccc([N+](=O)[O-])c1=O)c1c[nH]c2ccccc12 :: > 100 µM
Cc1ccn(CC(=O)c2c[nH]c3ccc(F)cc23)c(=O)c1[N+](=O)[O-] :: > 10 µM

###

# Target Or System: RPA-ssDNA-RAD52 complex (Homo sapiens, UniProt P43351)
# Construct: 6xHis
# Sequence (P43351 whole entry, one chain of several): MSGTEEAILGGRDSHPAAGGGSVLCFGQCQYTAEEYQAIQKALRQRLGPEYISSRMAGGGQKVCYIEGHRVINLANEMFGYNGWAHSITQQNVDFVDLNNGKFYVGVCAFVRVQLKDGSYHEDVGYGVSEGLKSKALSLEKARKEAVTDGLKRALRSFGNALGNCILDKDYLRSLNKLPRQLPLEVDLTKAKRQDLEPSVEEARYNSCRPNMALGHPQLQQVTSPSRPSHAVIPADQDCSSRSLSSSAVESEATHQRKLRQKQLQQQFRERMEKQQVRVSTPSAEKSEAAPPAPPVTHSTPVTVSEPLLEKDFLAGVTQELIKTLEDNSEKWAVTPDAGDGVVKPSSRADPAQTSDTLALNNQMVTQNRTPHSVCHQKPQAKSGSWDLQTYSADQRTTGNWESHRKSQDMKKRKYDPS
# Method: FRET-based inhibition of the RPA-ssDNA-RAD52 complex
# Experimental Context: value ± fitting error; N/A = no activity
Parameter Measured: IC50

Cc1cc([N+](=O)[O-])cn(CC(=O)c2c[nH]c3ccc(Cl)cc23)c1=O :: 7 µM
Cc1c([N+](=O)[O-])ccn(CC(=O)c2c[nH]c3ccc(Br)cc23)c1=O :: 0.76 µM
O=C(Cn1cc([N+](=O)[O-])cc(Br)c1=O)c1c[nH]c2ccc(Cl)cc12 :: 4.55 µM

###

# Target Or System: RAD52-ssDNA interaction (Homo sapiens, UniProt P43351)
# Construct: 6xHis
# Method: FRET-based inhibition of the RAD52-ssDNA interaction
# Experimental Context: 6 nM RAD52, 1 nM Cy3-dT30-Cy5 ssDNA, 25° C.; value ± fitting error
# Text: Proteins: The 6×His-tagged human RAD52 proteins (wild type and mutants) and untagged human RPA were expressed and purified as previously described in (Hengel S R, eLife. 2016; 5; Grimme J M, et al., Nucleic Acids Res. 2010; 38(9):2917-30; and Henricksen L A, et al., The Journal of biological chemistry. 1994; 269(15):11121-32). […] Spectral properties of many compounds overlapped with the Cy3 and Cy5 fluorescence. […]
pIC50: −log10 of the molar value.
Measured pIC50, listed per entry.
Parameter Measured: pIC50

Cc1c([N+](=O)[O-])ccn(CC(=O)c2c[nH]c3ccc(Br)cc23)c1=O :: 5.69
Cc1cc([N+](=O)[O-])cn(CC(=O)c2c[nH]c3ccc(Cl)cc23)c1=O :: 5.10
O=C(Cn1cc([N+](=O)[O-])cc(Br)c1=O)c1c[nH]c2ccc(Cl)cc12 :: 5.55

###

# Test system: EUFA423F cells
# Method: CellTiter-Glo cell viability, BRCA2-mutated cells
# Assay type: cell-based, human
# Experimental Context: BRCA2-mutated cells; yes/no
Parameter Measured: toxicity towards EUFA423 cells

Cc1cc([N+](=O)[O-])cn(CC(=O)c2c[nH]c3ccc(Cl)cc23)c1=O :: yes
Cc1c([N+](=O)[O-])ccn(CC(=O)c2c[nH]c3ccc(Br)cc23)c1=O :: no
O=C(Cn1cc([N+](=O)[O-])cc(F)c1=O)c1c[nH]c2ccc(F)cc12 :: yes
COc1ccccc1NS(=O)(=O)c1cc(C(=O)O)ccc1C :: yes

###

# Target Or System: RPA-ssDNA interaction (Homo sapiens)
# Sequence (P27694 whole entry): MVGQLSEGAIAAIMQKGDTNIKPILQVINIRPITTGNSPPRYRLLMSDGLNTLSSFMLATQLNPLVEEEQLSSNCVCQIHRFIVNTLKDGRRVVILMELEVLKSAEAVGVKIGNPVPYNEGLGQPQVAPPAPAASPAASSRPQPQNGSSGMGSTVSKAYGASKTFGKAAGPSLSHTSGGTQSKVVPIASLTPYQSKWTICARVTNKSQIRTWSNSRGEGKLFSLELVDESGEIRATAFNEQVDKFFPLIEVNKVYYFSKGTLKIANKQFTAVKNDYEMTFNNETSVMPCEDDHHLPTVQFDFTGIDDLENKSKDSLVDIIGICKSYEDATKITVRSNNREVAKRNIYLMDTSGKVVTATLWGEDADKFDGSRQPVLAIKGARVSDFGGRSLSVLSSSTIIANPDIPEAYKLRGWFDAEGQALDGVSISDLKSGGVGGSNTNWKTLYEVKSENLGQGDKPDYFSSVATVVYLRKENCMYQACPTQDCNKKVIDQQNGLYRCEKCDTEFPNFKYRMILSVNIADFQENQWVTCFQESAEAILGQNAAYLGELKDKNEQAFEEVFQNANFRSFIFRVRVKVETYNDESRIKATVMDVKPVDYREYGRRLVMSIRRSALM
# Sequence (P15927 whole entry partner): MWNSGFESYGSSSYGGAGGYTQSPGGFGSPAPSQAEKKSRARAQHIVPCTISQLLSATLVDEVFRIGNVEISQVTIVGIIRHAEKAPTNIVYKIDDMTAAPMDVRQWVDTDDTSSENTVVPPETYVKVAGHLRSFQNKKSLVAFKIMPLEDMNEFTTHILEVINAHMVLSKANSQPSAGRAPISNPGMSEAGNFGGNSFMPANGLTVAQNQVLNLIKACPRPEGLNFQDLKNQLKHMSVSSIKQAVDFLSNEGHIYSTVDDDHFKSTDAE
# Sequence (P35244 whole entry partner): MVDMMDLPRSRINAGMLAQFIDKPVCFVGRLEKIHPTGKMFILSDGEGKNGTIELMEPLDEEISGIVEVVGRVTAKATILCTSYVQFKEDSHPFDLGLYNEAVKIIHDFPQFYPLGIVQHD
# Method: FRET-based inhibition of the RPA-ssDNA interaction
# Experimental Context: 1 nM RPA, 1 nM Cy3-dT30-Cy5 ssDNA; value ± fitting error; N/A = no activity
pIC50: −log10 of the molar value.
Entries and their measured pIC50 follow.
Parameter Measured: pIC50

Cc1c([N+](=O)[O-])ccn(CC(=O)c2c[nH]c3ccc(Br)cc23)c1=O :: 5.95
O=C(Cn1cc([N+](=O)[O-])cc(Br)c1=O)c1c[nH]c2ccc(Cl)cc12 :: 4.54
Cc1cc([N+](=O)[O-])cn(CC(=O)c2c[nH]c3ccc(Cl)cc23)c1=O :: 4.80
